System: OVCAR-8
Protocol: NCI tumour cell line growth inhibition, 48 h
Active and inactive are the calls of the source. Rule as the data show it: active = GI50 up to about 1.1 µM and inactive = higher.
// one of active, inactive, no free text

Solved cases below.
>>> df
                                   molecule  assay_target  assigned_label
0  O=C1/C(=N\O)C2CCC1C2 (configuration not stated)       OVCAR-8        inactive
1       O=Cc1ccc(-c2nccc3c2[nH]c2ccccc23)o1       OVCAR-8        inactive
2  CC(=O)/N=C1\N/C(=C/c2cc([N+](=O)[O-])ccc2O)CN1C       OVCAR-8        inactive
3  CC(=O)c1c(O)ccc2c1c1c(n2C)C(=O)c2ccccc2C1=O       OVCAR-8        inactive

# input How was `C=CC(C)(C)n1cc(C2=C(O)C(=O)C(c3cn(C(C)(C)C=C)c4ccccc34)=C(OC(C)=O)C2=O)c2ccccc21` classified in this test?
# output active

# input GET /call?item= `CCOc1ncn(-c2ccc(NC(=S)Nc3cccc(O)c3)cc2)n1` returns the recorded outcome of this test.
# output inactive

* * *

Tested on: RPMI-8226
Protocol: NCI tumour cell line growth inhibition, 48 h
Activity calls are given as the source filed them. Rule as the data show it: active = GI50 up to about 1.1 µM and inactive = higher.
// classify into t (active), f (inactive)

Completed entries (count: 3):
In [3]: df
Out[3]:
                                   compound  assigned_label
0                 CCCCN/C(=N/C#N)NCc1ccccc1               f
1  CCN1/C(=C/C(C)=C/c2sc3ccccc3[n+]2CC)Sc2ccccc21               t
2           Cc1ccc(S(=O)(=O)N/N=C/C(C)C)cc1               f

# input Tell me the recorded outcome of this test for `CC(C)(C)c1cc(C(=O)/C=C/c2ccc3c(c2)OCO3)cc(C(C)(C)C)c1O` .
# output f

# input Outcome? `CN[C@@H]1C[C@H]2O[C@@](C)([C@@H]1OC)n1c3ccccc3c3c4c(c5c6ccccc6n2c5c31)C(=O)N[C@@H]4O`
# output t

# input Could you please tell me the result logged for CCOC(=O)n1c(=O)nc2c3c(ncn21)Oc1c(c(-c2ccccc2)nn1-c1ccccc1)C3c1ccc(Cl)cc1 (stereo not given) in this assay?
# output f

* * *

System: OVCAR-5
Protocol: NCI tumour cell line growth inhibition, 48 h
Active and inactive are the calls of the source. Rule as the data show it: active = GI50 up to about 1.1 µM and inactive = higher.
Could you please pick one outcome from this set? active, inactive

Compound	Assigned Label
C=CC(=O)c1ccc2c(c1)OCCOCCOCCOCCOCCO2	inactive
C#CCNC(CCCNC(=N)N)C(=O)O (stereo unspecified)	inactive
N=C(N)NCCNC(=N)N	inactive
CC(=O)OCC1OC(SC2=NC(=O)/C(=C/c3ccccc3)S2)C(OC(C)=O)C(OC(C)=O)C1OC(C)=O (stereo unspecified)	inactive
COC(=O)CCC(NC(=O)OC(C)(C)C)C(=O)NC(Cc1ccc(NC(=O)CCCC(C)=O)cc1)C(=O)NC(CCC(=O)OC)C(=O)OC (stereo unspecified)	inactive
O=[N+]([O-])c1ccc(C2=Nc3ccccc3[S+]([O-])C(c3ccccc3)C2)cc1 (stereo unspecified)	inactive
CC(=O)NC1C(OCc2ccccc2)OC(CO)C(O)C1OC(C)C(=O)NC(C)C(=O)NC(CCC(=O)NCCCCNc1c2ccccc2nc2cccc([N+](=O)[O-])c12)C(N)=O (stereo unspecified)	active
O=C(c1ccccc1)c1ccc2[nH]c(-c3c(Cl)c(Cl)c(Cl)c(Cl)c3C(=O)Nc3ccco3)nc2c1	inactive

Alright, here's another compound for you.
# input Hey, what did the test say about `C=CC(C)(C)n1cc(C2=C(O)C(=O)C(c3cn(C(C)(C)C=C)c4ccccc34)=C(OC(C)=O)C2=O)c2ccccc21` ?
# output inactive
